experiment: RP, Waters ACQUITY UPLC HSS T3, 150 × 2.1 mm, 1.8 µm, 45 °C, 0.6 mL/min, estimated dead time 0.55 min; A: water + 0.1% formic acid, pH 3; B: acetonitrile + 0.1% formic acid, pH 3; gradient (min/%B) 0/1 0.1/1 10/55 10.15/65 10.30/75 10.45/85 10.60/95 10.70/100 11/100 11.55/100 11.65/1 11.70/1 11.80/1 11.90/1 12/1 12.10/1 12.15/1 12.65/1; conditions: stereoisomer not certain
OBSERVABLE: LC retention time (min)

CC(CC(=O)O)CC(=O)O | 2.66
Cn1c[n+](C2OC(CO)C(O)C2O)c2nc(N)[nH]c(=O)c21 (stereo not given) | 2.05
O=C(O)CCC(=O)O | 1.37
CC(CCC(=O)O)C1CCC2C3CCC4CC(O)CCC4(C)C3CC(O)C12C (stereo not given) | 10.9
CC(CCC(=O)NCC(=O)O)C1CCC2C3C(O)CC4CC(O)CCC4(C)C3CCC12C (stereo not given) | 8.4
CC(=O)Nc1ccc(OC2OC(C(=O)O)C(O)C(O)C2O)cc1 (stereo not given) [Acetaminophen glucuronide] | 1.92

A = CC1=CC(=O)NS(=O)(=O)O1
B = CC(C)CC(=O)C(=O)O
C = CC(CCC(=O)O)C1CCC2C3C(O)CC4CC(O)CCC4(C)C3CC(O)C12C (stereo not given)
D = CC(=O)NC(CCC(N)=O)C(=O)O (stereo not given)
Query string: Please list these compounds in decreasing order of LC retention time. # the answer lists labels in the order requested
Result string: C, B, A, D
(C: 9.75 min, B: 3.52 min, A: 1.9 min, D: 0.978 min)
